Molecular target: T1, human CD80-murine Ig fusion protein (human)
T1 construct: Bought (Ancell #510-820); also called hCD80-mIg; human CD80-murine IgG
T1 chain: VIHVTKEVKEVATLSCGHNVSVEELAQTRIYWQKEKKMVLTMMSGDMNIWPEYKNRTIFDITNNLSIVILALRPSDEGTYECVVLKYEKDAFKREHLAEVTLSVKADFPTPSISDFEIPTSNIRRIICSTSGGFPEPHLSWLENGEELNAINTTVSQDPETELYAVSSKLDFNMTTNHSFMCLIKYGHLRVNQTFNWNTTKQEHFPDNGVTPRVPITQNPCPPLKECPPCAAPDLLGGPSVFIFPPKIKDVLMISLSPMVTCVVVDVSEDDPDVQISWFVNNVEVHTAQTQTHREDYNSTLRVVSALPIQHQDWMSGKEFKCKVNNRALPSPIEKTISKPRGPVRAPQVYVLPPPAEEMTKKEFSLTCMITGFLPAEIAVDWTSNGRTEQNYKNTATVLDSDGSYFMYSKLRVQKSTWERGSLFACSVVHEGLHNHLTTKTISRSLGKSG
Assay: SPR Biacore, hCD80-mIg captured
Method: All Biacore™ analyses were performed on a Biacore™ 2000 system (GE Healthcare) at room temperature (RT, 25° C.). HBS-EP buffer (10 mM HEPES (pH 7.4), 150 mM NaCl, 3 mM EDTA, 0.005% surfactant P20) was used as the flow buffer for all experiments. Rabbit anti-mouse IgG antibody (GE Healthcare, #BR-1005-14) was immobilized on CM5 sensor chips (GE Healthcare, #BR-1000-14) according to the manufacturer's protocol. […]
Overview of recorded Kd for various binders

INSERT INTO measurements (binder, reported_value) VALUES
  ('D3-8-IgG2 (Fc fusion) MHVAQPAVVLASSRGIASFVCEYESPGKANEIRVTVLRQAGSQVTEVCAMTYMKGDELTFLDDSSCTGTFSGNQVNLTIQGLRAADTGLYICKVELMYPPPYYLGFGNGTQIYVIDPEPCPDSDERKCCVECPPCPAPPVAGPSVFLFPPKPKDTLMISRTPEVTCVVVDVSHEDPEVQFNWYVDGVEVHNAKTKPREEQFNSTFRVVSVLTVVHQDWLNGKEYKCKVSNKGLPAPIEKTISKTKGQPREPQVYTLPPSREEMTKNQVSLTCLVKGFYPSDIAVEWESNGQPENNYKTTPPMLDSDGSFFLYSKLTVDKSRWQQGNVFSCSVMHEALHNHYTQKSLSLSPG', '0.439 to 1.75 nM');

Turning now to a further record.
Q: Find the recorded Kd belonging to D3-33-IgG2 (Fc fusion) MHVAQPAVVLASSRGIASFVCEYESPGKANEIRVTVLRKADSQVTEVCAMTYMKEDELTFLDDPSCTGTFSGNQVNLTIQGLRAADTGLYICKVELMYPPPYYLGIGNGTQIYVIDPEPCPDSDERKCCVECPPCPAPPVAGPSVFLFPPKPKDTLMISRTPEVTCVVVDVSHEDPEVQFNWYVDGVEVHNAKTKPREEQFNSTFRVVSVLTVVHQDWLNGKEYKCKVSNKGLPAPIEKTISKTKGQPREPQVYTLPPSREEMTKNQVSLTCLVKGFYPSDIAVEWESNGQPENNYKTTPPMLDSDGSFFLYSKLTVDKSRWQQGNVFSCSVMHEALHNHYTQKSLSLSPG and report it.
Ans: 0.439 to 1.75 nM

Values were extracted from patent US20110177071A1.
